Overview of recorded Potency for various molecules
Test: Concentration response confirmation VP16 counterscreen for inhibitors of ROR gamma transcriptional activity; note: potency is the fitted concentration of half-maximal effect; nearly all actives have a fitted effect of over 70% in size
Conditions: Drosophila S2 Gal4-VP16 UAS-luciferase, luminescence, 20 h; series mostly up to 46.1 µM
From the text: NIH Molecular Libraries Probe Production Network [MLPCN] NIH Chemical Genomics Center [NCGC] […] Small molecule inhibitors that inhibit components common to the RORgt and VP16 assays, such as the Gal4 DNA binding domain or the UAS luciferase reporter, will be active in both assays and thus scored as nonspecific. […]
Results filed as inconclusive are left out. Activity calls are given as the source filed them. Calls come from the whole dose curve; as a rule, active = well fitted inhibition curve with a large enough effect; inconclusive = small, poorly fitted or top-dose-only effect, or effect the other way; inactive = no such curve, though single readings can be large or run the other way.

structure-smiles: O=C(Nc1ncc(Cc2ccccc2)s1)C1=NCCN1
Potency: 19.9 µM (active)

Give the measured Potency of `CCCCNS(=O)(=O)c1ccc(OCC(=O)N2CCN(Cc3ccc4c(c3)OCO4)CC2)cc1` . 22.3 µM (active)

Give the measured Potency of `Cc1cc(S(=O)(=O)NC(C)C)ccc1OCC(=O)N1CCN(Cc2ccc3c(c2)OCO3)CC1` . 11.2 µM (active)

Give the measured Potency of `Cn1ncnc2c(=O)n(C)c(=O)nc1-2` . 0.445 µM (active)

The reported measurements were obtained from PubChem BioAssay AID2763.
